What ΔTm was measured for each of the following?
Molecular target: Cyclin-dependent kinase 2 (Homo sapiens) (UniProt P24941)
Details: Compound concentration 20.0 uM, Protein concentration 2.0 uM, Result type QC Liability
Description: Thermal Shift Assay. Domain: start/stop: M1-L298
Numbers only, in °C.

Here are 8 molecules together with their reported answers.
>>> print(df.to_string())
                                   molecule  measurement_label  units_label  number
0  COc1cc2nc(-c3cc(F)ccc3O)nc(N[C@@H]3CNC[C@H]3C(C)(C)O)c2cc1OC                ΔTm           °C    3.24
1  CN1CCN(C(=O)c2ccc(N(C)c3ncc(C(F)(F)F)c(N[C@@H]4CCC[C@@H]4C(N)=O)n3)cc2)CC1                ΔTm           °C    0.48
2  CC(C=CC1=C(C)CCCC1(C)C)=CC=CC(C)=CC(=O)O                ΔTm           °C    0.25
3  Nc1nc(-c2nn(Cc3ccccc3F)c3ncccc23)ncc1C1CC1                ΔTm           °C    0.56
4          CN1CCN(c2ccnc(NCCc3ccccc3)n2)CC1                ΔTm           °C    0.11
5  CS(=O)(=O)NC(=O)CCC/C=C\C[C@H]1C(=O)C[C@@H](O)[C@@H]1/C=C/[C@@H](O)COc1ccccc1                ΔTm           °C    0.46
6  CNC(=O)c1c(F)cccc1Nc1nc(Nc2cc3c(cc2OC)CCN3C(=O)CN(C)C)nc2[nH]ccc12                ΔTm           °C    0.06
7  O=C(Nc1ccc(N2CCC(C(=O)N3CCOCC3)CC2)cc1)c1cnc(Oc2ccccc2)nc1                ΔTm           °C    0.87

Here is another molecule to look at.
Prompt line: Look up ΔTm for this molecule: CCCCC[C@@](C)(O)/C=C/[C@H]1C(=O)CC(O)C1C/C=C\CCCC(=O)O (some centres undefined)
Response line: 0.16

====

Molecular target: Cyclin-dependent kinase 2 (Homo sapiens) (UniProt P24941)
Details: Compound concentration 20.0 uM, Protein concentration 2.0 uM, Result type QC Liability
What ΔTm was measured for each of the following?
Kindly format the answer as number then unit.

In [3]: df
Out[3]:
                               smiles_input   result
0  CN[C@@H](C)C(=O)N[C@H](C(=O)N1CCC[C@H]1c1nc(C(=O)c2ccc(F)cc2)cs1)C1CCCCC1  0.27 °C

For each listed entry, give its ΔTm.
1. COC(=O)c1sccc1S(=O)(=O)Nc1ccc(Nc2ccccc2)cc1OC
2. COc1cc(C(=O)NC2CCN(C)CC2)ccc1Nc1ncc2c(n1)N(C1CCCC1)CC(F)(F)C(=O)N2C
3. Oc1c(-c2cccnc2)cnn1-c1ccccn1
4. Cc1cc(OC2CCS(=O)(=O)CC2)cc(C)c1-c1cccc(COc2ccc(C(=O)O)c(F)c2)c1
5. Cc1cc2c(-c3ccco3)cnc(N[C@@H]3CCN(C)C[C@H]3C(=O)NC3CCCCC3)c2[nH]c1=O
6. Cc1ccc2c(NS(=O)(=O)c3ccccc3Cl)cccc2c1Oc1ncccc1-c1ccnc(N[C@H]2CCCNC2)n1
7. CC(=O)Nc1cccc(-n2c(=O)n(C3CC3)c(=O)c3c(Nc4ccc(I)cc4F)n(C)c(=O)c(C)c32)c1
8. CC(C)N(CCCCOCC(=O)O)c1cnc(-c2ccccc2)c(-c2ccccc2)n1

Response line:
1. 0.72 °C
2. 0.09 °C
3. 0.31 °C
4. -1.08 °C
5. 0.91 °C
6. 0.86 °C
7. 0.48 °C
8. -0.83 °C

====

Target: Glycogen synthase kinase-3 beta (Homo sapiens)
Settings: Compound concentration 20.0 uM, Protein concentration 2.0 uM, Result type QC Liability
Description: Thermal Shift Assay. Domain: start/stop: M26-R383
Everything with ΔTm lower than 0.02 °C is criterion not met; everything else, including exactly 0.02 °C, is criterion met.

Compound	Assayed Target	Classification
CS(=O)(=O)NCC[C@H](NC(=O)c1cncc2c1cnn2-c1ccc(F)cc1)c1ccnc(S(C)(=O)=O)c1	Glycogen synthase kinase-3 beta (Homo sapiens)	criterion not met

Prompt line: Form field: ΔTm at least 0.02 °C? Entry: "Clc1ccc(-c2nc3sccn3c2/C=N/OCc2ccc(Cl)c(Cl)c2)cc1"
Response line: criterion not met

Prompt line: Form field: ΔTm at least 0.02 °C? Entry: "CCCN1CCC(C#N)(NC(=O)[C@H](CC(C)(C)C)NC(=O)N2CCOCC2)CC1"
Response line: criterion not met

Prompt line: Form field: ΔTm at least 0.02 °C? Entry: N=C(N)NCCC[C@H](NC(=O)CC1(CC(=O)N2CCN(C3c4ccccc4NC(=O)c4ccccc43)CC2)CCCC1)C(=O)NCCn1c(=O)n(-c2ccccc2)n(-c2ccccc2)c1=O (some centres undefined)
Response line: criterion not met

====

Target: Mitogen-activated protein kinase 1 (Homo sapiens) (UniProt P28482)
Sequence (P28482 whole entry): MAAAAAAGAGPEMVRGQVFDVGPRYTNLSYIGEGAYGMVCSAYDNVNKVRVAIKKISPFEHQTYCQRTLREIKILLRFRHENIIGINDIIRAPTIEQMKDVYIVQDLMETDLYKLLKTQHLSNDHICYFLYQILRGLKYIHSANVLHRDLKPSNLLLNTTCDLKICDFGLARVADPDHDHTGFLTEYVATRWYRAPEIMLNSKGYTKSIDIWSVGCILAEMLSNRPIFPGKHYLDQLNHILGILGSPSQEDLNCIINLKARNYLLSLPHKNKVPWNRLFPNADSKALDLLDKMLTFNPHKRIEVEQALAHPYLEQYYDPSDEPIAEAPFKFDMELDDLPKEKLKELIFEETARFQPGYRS
Conditions: Compound concentration 20.0 uM, Protein concentration 2.0 uM, Result type QC Liability
Description: Thermal Shift Assay. Domain: start/stop: M1-S360
Measurement Label: ΔTm (°C)
One number for each entry, in °C.

Here are 3 compounds together with their reported answers.
                               smiles_input  units_label  number
0  Cc1ccc(NC(=O)c2ccc(CN3CC[C@H](N(C)C)C3)c(C(F)(F)F)c2)cc1Nc1nccc(-c2cncnc2)n1           °C     0.9
1  Nc1nccc(-c2c(-c3ccc(F)cc3)ncn2C2CCN(Cc3ccon3)CC2)n1           °C    0.36
2  CC(=O)Nc1nc(C)c(S(=O)(=O)Nc2ccc(C(O)(C(F)(F)F)C(F)(F)F)cc2)s1           °C    0.18

Here is another compound to look at.
Prompt line: Look up ΔTm for this compound: "COc1ccc(S(=O)(=O)N2CCOCC2)cc1Nc1ccc2c(n1)N(C1CCN(C)CC1)[C@H](C)C(=O)N2C"
Response line: 0.18

====

What ΔTm was measured for each of the following?
Biological target: Tyrosine-protein kinase ABL1 (Homo sapiens) (UniProt P00519)
Sequence (P00519 whole entry): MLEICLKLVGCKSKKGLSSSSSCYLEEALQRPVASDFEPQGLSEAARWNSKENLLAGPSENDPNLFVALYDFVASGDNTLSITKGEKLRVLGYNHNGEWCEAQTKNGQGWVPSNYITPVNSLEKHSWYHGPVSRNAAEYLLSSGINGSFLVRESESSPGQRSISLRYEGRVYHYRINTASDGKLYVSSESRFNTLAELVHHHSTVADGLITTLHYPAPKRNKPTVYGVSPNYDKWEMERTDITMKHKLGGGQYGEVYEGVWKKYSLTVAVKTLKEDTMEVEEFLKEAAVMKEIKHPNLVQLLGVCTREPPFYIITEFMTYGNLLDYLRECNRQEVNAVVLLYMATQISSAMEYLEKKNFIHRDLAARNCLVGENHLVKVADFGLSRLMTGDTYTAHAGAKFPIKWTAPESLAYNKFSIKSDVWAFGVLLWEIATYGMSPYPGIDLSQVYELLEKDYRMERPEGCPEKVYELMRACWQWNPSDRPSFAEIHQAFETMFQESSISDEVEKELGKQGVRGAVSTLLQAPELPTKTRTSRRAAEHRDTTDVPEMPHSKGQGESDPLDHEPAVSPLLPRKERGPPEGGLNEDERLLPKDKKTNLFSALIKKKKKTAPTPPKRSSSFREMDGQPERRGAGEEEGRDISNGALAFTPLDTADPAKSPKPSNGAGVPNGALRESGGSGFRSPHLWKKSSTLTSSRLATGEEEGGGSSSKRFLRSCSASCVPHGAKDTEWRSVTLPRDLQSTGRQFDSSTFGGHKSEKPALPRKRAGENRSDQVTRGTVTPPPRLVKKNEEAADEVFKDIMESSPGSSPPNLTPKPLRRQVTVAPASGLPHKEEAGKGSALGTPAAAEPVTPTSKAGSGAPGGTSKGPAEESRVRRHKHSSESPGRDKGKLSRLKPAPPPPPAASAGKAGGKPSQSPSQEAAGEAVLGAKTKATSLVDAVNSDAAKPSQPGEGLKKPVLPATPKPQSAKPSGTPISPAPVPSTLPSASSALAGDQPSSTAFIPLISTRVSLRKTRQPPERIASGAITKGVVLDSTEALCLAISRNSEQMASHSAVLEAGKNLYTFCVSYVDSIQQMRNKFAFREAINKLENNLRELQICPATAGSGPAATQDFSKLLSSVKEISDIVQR
Settings: Compound concentration 20.0 uM, Protein concentration 2.0 uM, Result type QC Liability
Description: Thermal Shift Assay. Domain: start/stop: S229-K512
Give bare numbers, in °C.

In [3]: df
Out[3]:
                                   compound  units_label  number
0  CNC(=O)c1cc(C(=O)N[C@H]2[C@@H]3COC[C@@H]32)cc2c1O[C@H](CF)[C@H]2c1ccccc1           °C    0.27
1  CCN1C(=O)/C(=C(\NC2CCN(C)CC2)c2ccc3c(c2)OCO3)c2cc(C(C)=O)ccc21           °C     0.4
2    O[C@]1(C(F)(F)F)CCCC[C@H]1Nc1ccc(F)cc1           °C    0.25
3  NCC1CCC(CNc2nc(NCc3ccccc3OC(F)(F)F)ncc2[N+](=O)[O-])CC1 (stereo not given)           °C    0.62

Here is another compound to look at.
Prompt line: Look up ΔTm for this compound: "Cn1nccc1-c1ccc(Sc2cccc(C3(C(N)=O)CCOCC3)c2)cc1"
Response line: -0.11

====

Molecular target: Tyrosine-protein kinase ABL1 (Homo sapiens) (UniProt P00519)
Conditions: Compound concentration 20.0 uM, Protein concentration 2.0 uM, Result type QC Liability
Measurement Label: ΔTm (°C)
Give bare numbers, in °C.

For each listed entry, give its ΔTm.
1. O=C1CN(c2ccccc2F)C(NCCN2CCOCC2)=C1c1nc2cc(Br)ccc2c(=O)[nH]1
2. CCCCC/C=C/C=C1/C(=O)C=C[C@@H]1C/C=C\CCCC(=O)O
3. COc1cc(N2CCN(C)CC2)ccc1Nc1ncc2c(n1)N(C)c1ccccc1C(=O)N2CC(F)(F)F
4. CN(C1CCc2c(c3ccccc3n2CC(=O)O)C1)S(=O)(=O)c1ccc(F)cc1 (configuration not stated)
5. CN(C)C/C=C/C(=O)Nc1cc2c(Nc3ccc(F)c(Cl)c3)ncnc2cc1OC[C@@H]1CCCO1
6. CNC(=O)c1c(F)cccc1Nc1nc(Nc2cc3c(cc2OC)CCN3C(=O)CN(C)C)nc2[nH]ccc12
7. CCCCC[C@@](C)(O)/C=C/[C@H]1C(=O)CC(O)C1C/C=C\CCCC(=O)O (some centres not stated)

Response line:
[0.38, -2.05, 0.67, 0.59, 6.89, -0.29, -0.65]

====

Biological target: Casein kinase I isoform delta (Homo sapiens) (UniProt P48730)
Sequence (P48730 whole entry, looked up, canonical isoform): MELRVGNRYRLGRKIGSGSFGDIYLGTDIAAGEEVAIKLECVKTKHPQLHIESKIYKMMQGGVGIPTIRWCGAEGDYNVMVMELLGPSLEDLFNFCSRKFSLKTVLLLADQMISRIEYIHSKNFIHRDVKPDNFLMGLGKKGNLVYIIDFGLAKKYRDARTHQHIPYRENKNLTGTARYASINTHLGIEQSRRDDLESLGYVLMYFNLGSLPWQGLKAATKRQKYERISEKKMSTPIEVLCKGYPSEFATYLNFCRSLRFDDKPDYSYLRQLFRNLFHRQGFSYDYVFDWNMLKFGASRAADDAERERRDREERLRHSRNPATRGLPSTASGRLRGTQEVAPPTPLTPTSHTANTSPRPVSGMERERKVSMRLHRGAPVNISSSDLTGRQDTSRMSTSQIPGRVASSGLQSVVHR
Settings: Compound concentration 20.0 uM, Protein concentration 2.0 uM, Result type QC Liability
Description: Thermal Shift Assay. Domain: start/stop: M1-K294
Measurement Label: ΔTm (°C)
Answers are plain numbers, in °C.

Here are 3 compounds together with their reported answers.
>>> df
                               smiles_input                            assayed_target  number
0  COc1cc(-c2cc3ncccc3c(O[C@@H](C)[C@H]3CNC(=O)C3)n2)cc(OC)c1OC  Casein kinase I isoform delta (Homo sapiens) (UniProt P48730)    1.43
1   COc1cc2nc(C)nc(NC3(c4ccccc4)CC3)c2cc1OC  Casein kinase I isoform delta (Homo sapiens) (UniProt P48730)    0.15
2  COc1cc(C(N)=O)ccc1Nc1ncc2c(n1)N(CCC(C)C)[C@H](C)C(=O)N2C  Casein kinase I isoform delta (Homo sapiens) (UniProt P48730)    0.51

For each listed entry, give its ΔTm.
1. Nc1ncnc2c1ccn2[C@@H]1O[C@H]([C@@H](O)c2ccccc2)[C@@H](O)[C@H]1O
2. COc1cnccc1Nc1nc(-c2nn(Cc3c(F)cc(OCCO)cc3F)c3ccccc23)ncc1OC
3. CNc1nc(-c2ccc3c(N)n[nH]c3c2)cc(N2C[C@@H](C(=O)NC3CCCCC3)CC[C@H]2C)n1
4. Cc1cc2c(-c3ccco3)cnc(N[C@@H]3CCN(C)C[C@H]3C(=O)NC3CCCCC3)c2[nH]c1=O
5. CCN(C(=O)c1cc(F)ccc1Oc1cncnc1N1CC2(CCN(C[C@H]3CC[C@H](NS(=O)(=O)CC)CC3)CC2)C1)C(C)C
6. COc1cc2ncnc(Nc3cccc(O)c3)c2cc1OC

Response line:
[0.65, -2.9, 0.18, -0.09, -0.25, 2.54]

Cited source: ChEMBL document CHEMBL5308504
